Listing: Chemical stability (relative purity loss) Buffer pH 7.4 of selected compounds
assay overview: Chemical stability assessment of peptides (relative purity loss)
Assay type: physicochemical
condition: 50 mM phosphate buffer pH 7.4 + acetonitrile (1:1); 24 hours at 37° C.
Starred links: 1 amine or outer side, 2 acyl side, 3 side chain; linkers in the order of their positions; H or OH if unused. Positions of bridges follow the written chain, without caps; N, C: chain ends. Non-standard residues stand in square brackets, D forms with d. Residues, ends and D or L forms follow the SMILES beside them. X3 = CN(CCCCC(=O)N[C@@H](CS[*:2])C(=O)[*:1])[*:3]; 2Nal = N[C@@H](Cc1ccc2ccccc2c1)C(=O)O; AEF = NCCOc1ccc(C[C@H](N)C(=O)O)cc1; αMeL = CC(C)C[C@](C)(N)C(=O)O; Thp = NC1(C(=O)O)CCOCC1
Number only, in %; omit the unit.

CC(=O)N[C@H]1CCCCNC(=O)[C@@H]2CSSC[C@H](NC(=O)[C@H](CCC(N)=O)NC(=O)[C@H](Cc3c[nH]c4ccccc34)NC1=O)C(=O)N[C@@H](Cc1ccc(OCCN)cc1)C(=O)N[C@@H](Cc1ccc3ccccc3c1)C(=O)N[C@@](C)(CC(C)C)C(=O)N[C@H](C(=O)N[C@@H](CC(N)=O)C(=O)N[C@@H](CC(N)=O)C(N)=O)CCC(=O)N(C)CCCCC(=O)N2 [compound 14] (Ac-KWQC[AEF][2Nal][αMeL]ENN-NH2; linker 1-4-8 via X3) ... 0.1

Okay, next one:
Give a short answer stating reported Chemical stability (relative purity loss) Buffer pH 7.4 for CC(=O)N[C@H]1CCCCNC(=O)[C@@H]2CSSC[C@H](NC(=O)[C@H](CCC(N)=O)NC(=O)[C@H](Cc3c[nH]c4ccccc34)NC1=O)C(=O)N[C@@H](Cc1ccc(OCCN)cc1)C(=O)N[C@@H](Cc1ccc3ccccc3c1)C(=O)NC1(CCOCC1)C(=O)N[C@H](C(=O)N[C@@H](CC(N)=O)C(=O)N[C@@H](CC(N)=O)C(N)=O)CCC(=O)N(C)CCCCC(=O)N2 [compound 13] (Ac-KWQC[AEF][2Nal][Thp]ENN-NH2; linker 1-4-8 via X3) . 1.6
